Measured GI50 by item
# Test system: DLD-1
# Protocol Text: NCI tumour cell line growth inhibition, 48 h
Calls of active or inactive are those of the source. Rule as the data show it: active = GI50 up to about 1.1 µM and inactive = higher.

INSERT INTO assay_data (compound, experimental_target, measurement) VALUES
  ('COc1cc(O)c2c(c1)C(=O)C=C(Cl)C2=O', 'DLD-1', '30.3 µM (inactive)'),
  ('Cc1ccc(S(=O)(=O)NC2CCCCO2)cc1 (configuration not stated)', 'DLD-1', '> 100 µM (inactive)');

Query: GI50; subject: O=c1cccccc1NCCCCNc1cccccc1=O
57.3 µM (inactive)

# iterate: CC(C)C1COC(c2ccc3ccccc3c2-c2c(O[Si](C)(C)C(C)(C)C)ccc3ccccc23)=N1 (configuration not stated)
17.1 µM (inactive)

# iterate: CCOC(=O)NC(=O)c1cn(CCCO)c(=O)[nH]c1=O
> 100 µM (inactive)

Check CC(=O)Nc1ccc(OCC(O)CO)cc1 (configuration not stated) too.
23.2 µM (inactive)

----------
# Test system: SNB-75
# Protocol Text: NCI tumour cell line growth inhibition, 48 h
Active and inactive are the calls of the source. Rule as the data show it: active = GI50 up to about 1.1 µM and inactive = higher.
Measurement Label: GI50

INSERT INTO assay_data (compound, measurement) VALUES
  ('Cc1cnc(/C=N\NC(N)=S)c2cccc(N)c12', '0.553 µM (active)');

In the following, a different compound is considered.
Form: Entry = OCC1OC(n2cnc3c2N=CNC[C@H]3O)C(Cl)C1O (some centres undefined) | System = SNB-75 | GI50 = ____
> 100 µM (inactive)

----------
# Test system: SK-MEL-5
# Protocol Text: NCI tumour cell line growth inhibition, 48 h
Activity calls are given as the source filed them. No stated cut-off is given here; in the data, active = GI50 up to about 1.1 µM and inactive = higher.
A collection of compounds and their measured GI50

Please review the following examples before continuing.
INSERT INTO results (compound, experimental_target, measurement) VALUES
  ('O=C(CC12C3C4C1C1C2C3C41CC(=O)NO)NO (stereo unspecified)', 'SK-MEL-5', '27.4 µM (inactive)'),
  ('O=C1C=CC=CC2CC=C[C@@H](O)C12 (stereo partly specified)', 'SK-MEL-5', '18 µM (inactive)'),
  ('O=c1[nH]c2c(c3ccccc13)CCc1ccccc1-2', 'SK-MEL-5', '> 100 µM (inactive)'),
  ('CN(C)CC1CCCC(CN(C)C)C1=NOC(=O)c1ccccc1 (stereo unspecified)', 'SK-MEL-5', '> 100 µM (inactive)'),
  ('O=C(O)c1cc2sc(C(=O)O)cc2s1', 'SK-MEL-5', '> 100 µM (inactive)'),
  ('O=C(O)CCC(=O)c1ccc[nH]1', 'SK-MEL-5', '> 100 µM (inactive)'),
  ('Oc1cccnc1/C=N/OCc1ccccc1', 'SK-MEL-5', '> 100 µM (inactive)'),
  ('CCCNc1[nH]c(C(=O)c2ccccc2)c(N)c1C(=S)Nc1ccccc1', 'SK-MEL-5', '> 100 µM (inactive)'),
  ('CCC(=O)O[C@H]1CC[C@H]2[C@@H]3CCC4=C/C(=N/OC(=O)c5cccc6c(=O)c7ccccc7[nH]c56)CC[C@]4(C)[C@H]3CC[C@]12C', 'SK-MEL-5', '22.8 µM (inactive)'),
  ('CC1CCP(=O)(c2ccccc2)CC1 (stereo unspecified)', 'SK-MEL-5', '> 100 µM (inactive)');

Alright, here's another compound for you.
So what does the record say about GI50 for Cc1ccc(SCC(CF)OC(C)n2cnc3c(Cl)nc(N)nc32)cc1 (stereo unspecified) ?
17.3 µM (inactive)
